# Tested on: K-562 leukemia
# method summary: NCI-60 one-dose screen, 48 h
# run conditions: 10 µM unless noted
About 83,000 compounds went through this panel and 20% of them were active in at least one assay; those are over-represented in the sample as a whole. Calls of active or inactive are those of the source. How the source made its calls: active means growth percent below 10; inactive means the rest.
Outcome codes: Y (active), N (inactive)

> print(dat)
                  compound.structure.string  label.value
1  COC(=O)[C@]12CCC(C)(C)C[C@H]1C1=CC[C@@H]3[C@@]4(C)C/C(=C/c5cccnc5)C(=O)C(C)(C)[C@@H]4CC[C@@]3(C)[C@]1(C)CC2            Y
2  COc1cc(NCc2cn(-c3ccc(C(=O)O)cc3)nc2-c2ccc(C(=O)O)cc2)cc(OC)c1OC            N
3  CC(=O)OC[C@]12CC[C@@H](C(=O)CBr)[C@@H]1[C@H]1CC[C@@H]3[C@@]4(C)CCCNC(C)(C)[C@@H]4CC[C@@]3(C)[C@]1(C)CC2            Y
4  O=C1/C(=C/c2ccc(OCc3ccccc3)cc2)Oc2cc(OCCN3CCCCC3)ccc21            Y

* * *

# System: MDA-MB-231 breast
# method summary: NCI-60 one-dose screen, 48 h (100 = growth as untreated, 0 = no growth, -100 = all killed)
# run conditions: 10 µM unless noted
About 83,000 compounds went through this panel and 20% of them were active in at least one assay; those are over-represented in the sample as a whole. Activity calls are given as the source filed them. The calls were made as follows: active = growth percent below 10; inactive = the rest.
growth by entry:

compound	growth
Cc1nc(Cl)cc(N(c2cc(Cl)nc(C)n2)c2ncc(C(=O)Nc3c(C)cccc3Cl)s2)n1	24% (inactive)
CCN(CC)c1ccc2cc(C(Nc3ccc(Br)c(C(F)(F)F)c3)c3nnnn3C(C)(C)C)c(=O)oc2c1 (stereo not drawn)	86.9% (inactive)
COC(=O)C(=Cc1ccccc1[N+](=O)[O-])C(=O)OC	48% (inactive)
CC1(C)[C@@H](NOCCCN)CC[C@]2(C)[C@H]3C(=O)C=C4[C@@H]5C[C@](C)(C(=O)O)CC[C@]5(C)CC[C@@]4(C)[C@]3(C)CC[C@@H]12	-88.4% [100 µM] (active)
O=C(Nc1cc(-c2cccnc2)nc(NCCCN2CCOCC2)n1)c1cc(Br)cc(C(F)(F)F)c1	32.7% (inactive)
CCN(CCO)CCC(=O)c1ccc([N+](=O)[O-])cc1	115% (inactive)
C=C(C)[C@@H]1CC[C@]2(COC(=O)c3ccccc3C(=O)O)CC[C@]3(C)[C@H](CC[C@@H]4[C@@]5(C)CC[C@H](OC(=O)c6ccccc6C(=O)O)C(C)(C)[C@@H]5CC[C@]43C)[C@@H]12	-26.2% [100 µM] (active)
CCOC(=O)c1nn(C2CCCCO2)c2ccc(NC(=O)CN3CCCC3)cc12 (stereo not drawn)	104% (inactive)

* * *

growth by entry:
# Test system: RPMI-8226 leukemia
# method summary: NCI-60 one-dose screen, 48 h (100 = growth as untreated, 0 = no growth, -100 = all killed)
# run conditions: 10 µM unless noted
The panel holds about 83,000 compounds, 20% with a hit somewhere; the sample as a whole holds those more often. Calls of active or inactive are those of the source. How the source made its calls: active means growth percent below 10; inactive means the rest.
metric: growth

compound structure string	metric	observed result
CCCCCCSc1ncnc2nc[nH]c12	growth	84.8% (inactive)
Cn1cc(-c2noc(C(=O)c3cn(C)c4ncccc34)n2)c2ccccc21	growth	94.5% (inactive)
CSc1cccc([N+](=O)[O-])c1	growth	96.8% (inactive)
CC1(C)CC[C@]2(C(=O)O)CC[C@]3(C)C(=CC[C@@H]4[C@@]5(C)C/C(=C/c6ccco6)C(=O)C(C)(C)[C@@H]5CC[C@]43C)[C@@H]2C1	growth	0.316% [100 µM] (active)
COc1cc(-c2nc(SCCC(C)C)nc(Nc3ccccc3)c2C#N)cc(OC)c1OC	growth	92.2% (inactive)
O=c1cc(-c2ccccc2)oc2c(O)c(O)ccc12	growth	45.6% (inactive)
Cn1cc(-c2nnc(-c3cn(C)c4ncccc34)o2)c2ccccc21	growth	31.3% (inactive)
c1cc2ccc1CNCCN1CCNCc3ccc(cc3)Oc3ccc(cc3)CNCCN(CCNCc3ccc(cc3)O2)CCNCc2ccc(cc2)Oc2ccc(cc2)CNCC1	growth	-49% (active)
Cc1ccc(NC(=O)N[C@@H](Cc2cc(F)cc(F)c2)C(=O)N[C@@H]2C(=O)N3CCC[C@H]3C(=O)N3CCOC[C@H]3C(=O)N[C@@H](C)C(=O)N3C[C@H](C)C[C@H]3C(=O)O[C@H]2C)cc1	growth	23% (inactive)

* * *

# Test system: MDA-MB-435 melanoma
# method summary: NCI-60 one-dose screen, 48 h
# run conditions: 10 µM unless noted
The panel holds about 83,000 compounds, 20% with a hit somewhere; the sample as a whole holds those more often. Active and inactive are the calls of the source. How the source made its calls: active means growth percent below 10; inactive means the rest.
Outcome codes: yes (1) (active), no (0) (inactive)

> print(dat)
                   compound.structure.string  label.value
 1           NC1=NC(=O)NC1(c1ccccc1)c1ccccc1       no (0)
 2  COc1cc(-c2cc(-c3ccc(Nc4ncnc5cc(Cl)ccc45)cc3)nc(N3CCCCC3)n2)cc(OC)c1OC       no (0)
 3  O=C(OCc1ccc2c(Cl)cc(Cl)c(O)c2n1)N1CCN(C(=O)c2cc3cc(F)ccc3[nH]2)CC1      yes (1)
 4  COC(=O)c1cc(O)c2c(c1C(=O)OC)C[C@H]1[C@@H]3CC=C4C[C@@H](O)CC[C@]4(C)[C@H]3CC[C@]21C       no (0)
 5   Nc1ccc2c(c1)Cc1cc(NC(=O)C(F)(F)F)ccc1-2       no (0)
 6  COc1ccc2c(c1)c(-c1noc(-c3cn(C)c4ncc(F)cc34)n1)cn2C       no (0)
 7                         O=C(NCCO)c1cccnc1       no (0)
 8                  CSc1cccc([N+](=O)[O-])c1       no (0)
 9  COc1cc(OC)c(/C=C/C(=O)c2c(N)cc(OC)cc2OC)c(OC)c1      yes (1)
10   Cc1cc(C)c(O)c(CNCCCNCc2cc(C)cc(C)c2O)c1      yes (1)

* * *

# Tested on: DU-145 prostate
# method summary: NCI-60 one-dose screen, 48 h
# run conditions: 10 µM unless noted
The panel holds about 83,000 compounds, 20% with a hit somewhere; the sample as a whole holds those more often. Calls of active or inactive are those of the source. The calls were made as follows: active = growth percent below 10; inactive = the rest.
Outcome codes: active, inactive

> print(dat)
                                    compound  target.under.test  label.value
 1  COc1ccc(C2=C(c3cn(C)c4ccccc34)C(=O)OC2)cc1OC    DU-145 prostate     inactive
 2  CC(C)(C)c1cc(C(=O)Nc2ccc(C(=O)NCCN)cc2)cc(C(C)(C)C)c1    DU-145 prostate     inactive
 3  O=C(NCc1ccc(Cn2c(=O)sn(-c3ccccc3)c2=O)cc1)OCc1ccc2c(Br)cc(Br)c(O)c2n1    DU-145 prostate       active
 4  C=C(C)[C@@H]1CC[C@]2(C)[C@H](CC[C@@H]3[C@@H]([C@@](C)(O)CCC=C(C)C)CC[C@]32C)[C@@]1(C)CCC(=O)N1CCN(C)CC1    DU-145 prostate       active
 5  COc1ccc(C2NC(=O)C(C#N)c3c2sc2c(F)cccc32)cc1 (configuration not stated)    DU-145 prostate     inactive
 6  C=C(C)[C@@H]1CC[C@]2(C(N)=O)CC[C@]3(C)[C@H](CC[C@@H]4[C@@]5(C)CC[C@H](O)C(C)(C)[C@@H]5CC[C@]43C)[C@@H]12    DU-145 prostate       active
 7  COc1cc(NCc2cn(-c3ccc(C(=O)O)cc3)nc2-c2ccc(C(=O)O)cc2)cc(OC)c1OC    DU-145 prostate     inactive
 8  Cn1cc(-c2noc(-c3cn(C)c4ncc(F)cc34)n2)c2cc(Br)ccc21    DU-145 prostate     inactive
 9  CCCC(NC(=O)OCc1ccccc1)C(=O)O (configuration not stated)    DU-145 prostate     inactive
10  CCCCN(CC)CC(CC)Nc1cc(OC)cc2cccnc12 (configuration not stated)    DU-145 prostate     inactive
11  CC1(C)CC[C@]2(C(=O)O)CC[C@]3(C)C(=CC[C@@H]4[C@@]5(C)C/C(=C/c6cccnc6)[C@H](O)C(C)(C)[C@@H]5CC[C@]43C)[C@@H]2C1    DU-145 prostate       active
12       O=C1NC(=O)C(Cc2ccccc2)(Cc2ccccc2)N1    DU-145 prostate     inactive
13  CC(=O)OC[C@]12CC[C@@H](C(=O)CBr)[C@@H]1[C@H]1CC[C@@H]3[C@@]4(C)CCCNC(C)(C)[C@@H]4CC[C@@]3(C)[C@]1(C)CC2    DU-145 prostate       active
14          Cn1ncc2c(Nc3ccc(O)cc3)nc(Cl)nc21    DU-145 prostate     inactive
15     CSc1nc(=S)c2nc(SC)n(-c3ccccc3)c2[nH]1    DU-145 prostate     inactive
16                         C=CCc1nc2ccccc2s1    DU-145 prostate     inactive
17  COc1cc(C)cc2oc3oc(=N)c(C(=O)c4ccccc4)cc3c(=O)c12    DU-145 prostate     inactive
18  Cc1c(Cn2cc(COc3ccc(Br)cc3)nn2)c(C)c(Cn2cc(COc3ccc(Br)cc3)nn2)c(C)c1Cn1cc(COc2ccc(Br)cc2)nn1    DU-145 prostate     inactive
19  O=C(N/N=C/c1ccc([N+](=O)[O-])cc1)c1ccc(Br)o1    DU-145 prostate     inactive
20    N#C/C(=C(/O)CCCO)c1nc2ccccc2c(=O)[nH]1    DU-145 prostate     inactive
21       CCCCCCNC(=O)Nc1ncnc2c1ncn2-c1ccccc1    DU-145 prostate     inactive
22  CC(C)=CCC[C@](C)(O)[C@H]1CC[C@]2(C)[C@@H]1CC[C@@H]1[C@@]3(C)CC[C@H](OC(=O)CCC(=O)O)C(C)(C)[C@@H]3CC[C@]12C    DU-145 prostate     inactive
23  O=C(CSc1nc2ccc([N+](=O)[O-])cc2[nH]1)Nc1ccc(F)c(Cl)c1    DU-145 prostate     inactive
24             CCNc1cc2c(cc1Br)-c1ccccc1C2=O    DU-145 prostate     inactive
25  COc1cc(C)cc2oc3oc(=O)c(C(=O)c4cc5cc(Br)ccc5o4)cc3c(=O)c12    DU-145 prostate     inactive
26     c1ccc(-c2nnc(-c3c[nH]c4ncccc34)s2)cc1    DU-145 prostate     inactive
27  C=C(C)[C@@H]1CC[C@]2(C(N)=O)CC[C@]3(C)[C@H](CC[C@@H]4[C@@]5(C)C/C(=C/c6cccnc6)C(=O)C(C)(C)[C@@H]5CC[C@]43C)[C@@H]12    DU-145 prostate     inactive
28  COc1cc(OC)c(/C=C/C(=O)c2c(N)cc(OC)cc2OC)c(OC)c1    DU-145 prostate     inactive
29                    CNc1cc(C(=O)O)nc(NC)n1    DU-145 prostate     inactive
30  CCN(CC)CC(C)Nc1ccc(C)c2sc3ccccc3c(=O)c12 (configuration not stated)    DU-145 prostate     inactive
31        COc1ccc(C=C2c3ccccc3-c3ccccc32)cc1    DU-145 prostate     inactive
32         COc1ccc(C(=O)/C=C/c2ccccn2)c(O)c1    DU-145 prostate     inactive
33  COc1ccc2[nH]c(C(=O)N3CCN(C(=O)OCc4ccc5c(Br)cc(Br)c(O)c5n4)CC3)cc2c1    DU-145 prostate       active
34  COc1ccc(-c2cc(-c3ccc(Cl)cc3)nc(NCCCCNc3ccnc4cc(Cl)ccc34)n2)cc1    DU-145 prostate     inactive
35  CC1(C)CC[C@]23CC[C@]4(C)[C@H](CC[C@@H]5[C@@]6(C)C/C(=C/c7ccncc7)C(=O)C(C)(C)[C@@H]6CC[C@]54C)[C@H]2[C@H]1OC3=O    DU-145 prostate     inactive
36  CCOC(=O)c1nn(C2CCCCO2)c2ccc(NC(=O)CSc3nc4ccccc4c(=O)[nH]3)cc12 (configuration not stated)    DU-145 prostate     inactive
37  COc1ccc(-c2c(C)nn3c(NCCN4CCOCC4)cc(C)nc23)cc1OC    DU-145 prostate     inactive
